Test system: NCI-H460 lung
Assay: NCI tumour cell line growth inhibition, 48 h
ENDPOINT LABEL: TGI

Below, 3 compounds whose answers are already recorded.
1) COc1ccc(OC(C(=O)O)c2ccccc2)c2c1CCCC2=O (centres undefined) :: > 100 µM
2) CC(=O)N1CC(=O)N2C(=O)/C(=C/c3ccc(Cl)cc3)N=C12 :: > 100 µM
3) CCCCCCCCCCCCOC1C(C(CC(=O)N2CCN(c3cccc(C(F)(F)F)c3)CC2)NS(=O)(=O)c2cc(Cl)cc(Cl)c2)OC2OC(C)(C)OC21 (centres undefined) :: > 100 µM

API: the following record is the query input.
Query: Give the reported TGI for COc1ccc(-c2cc(-c3ccc(O)cc3)nc3n[nH]c(N)c23)cc1 (system: NCI-H460 lung).
Reply: 58.2 µM
